- SYSTEM NAME: Lysosomal acid glucosylceramidase (Homo sapiens) (UniProt P04062)
- Sequence (P04062 whole entry N409S): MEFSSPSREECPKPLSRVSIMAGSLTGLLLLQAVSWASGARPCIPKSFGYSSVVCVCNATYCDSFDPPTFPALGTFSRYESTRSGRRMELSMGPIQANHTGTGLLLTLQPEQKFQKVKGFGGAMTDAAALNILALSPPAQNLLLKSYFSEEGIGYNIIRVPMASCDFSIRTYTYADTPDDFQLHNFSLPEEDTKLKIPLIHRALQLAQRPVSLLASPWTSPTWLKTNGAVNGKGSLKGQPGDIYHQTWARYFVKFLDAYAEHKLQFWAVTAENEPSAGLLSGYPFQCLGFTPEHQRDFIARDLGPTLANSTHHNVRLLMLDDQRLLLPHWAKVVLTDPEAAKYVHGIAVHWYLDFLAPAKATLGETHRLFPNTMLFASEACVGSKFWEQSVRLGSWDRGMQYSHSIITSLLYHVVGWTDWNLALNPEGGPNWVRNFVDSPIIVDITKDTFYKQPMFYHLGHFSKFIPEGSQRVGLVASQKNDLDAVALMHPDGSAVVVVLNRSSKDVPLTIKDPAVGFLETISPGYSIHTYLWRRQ
- ASSAY PROTOCOL: qHTS Assay for Inhibitors and Activators of N370S glucocerebrosidase as a Potential Chaperone Treatment of Gaucher Disease: Primary Screen Confirmation;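 on Potency: enzyme source is Gaucher patient spleen homogenate not purified recombinant protein; potency means the concentration at half of the fitted maximal effect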
- TEST SETTINGS: N370S glucocerebrosidase enzyme activity, fluorogenic substrate; series mostly up to 54 µM
Inconclusive results are not listed. The source made the active and inactive calls. The call rests on the fitted dose curve; in most records, active means well fitted curve in the direction sought with a large enough effect; inconclusive means small, poorly fitted or top-dose-only effect, or another doubt; inactive means no such curve, though single readings can be large or run the other way.
REPORTED ENDPOINT: Potency

Consider the worked cases shown below.
| MOLECULE | Potency |
| --- | --- |
| Cc1cccc(NC(=O)Nc2cccc(C#N)c2)n1 | inactive |
| Cc1ccc(S(=O)(=O)N2CCN(c3nc(-n4cnc5ccccc54)nc4ccccc34)CC2)cc1 | inactive |
| Cc1ccc(-c2nc(Nc3ccc(O)cc3)c3ccccc3n2)cc1 | 12.7 µM (active) |
| S=C(NCCCc1cnc[nH]1)NCCCN(Cc1ccc(Cl)cc1)c1ccc(Br)cn1 | 1.16 µM (active) |
| O=S(=O)(c1ccc2c(c1)OCCO2)N1CCN(c2nc(-c3ccccc3)nc3ccccc23)CC1 | 3.2 µM (active) |
| Oc1ccccc1Nc1nc(NCC2CCCO2)c2ccccc2n1 (stereo not given) | inactive |
| Cc1cc(C)cc(N(CC(=O)Nc2ccc(C(F)(F)F)cc2)S(=O)(=O)c2c(C)[nH]c(=O)[nH]c2=O)c1 | 2.59 µM (active) |
| CCC(=O)OCCNc1nc(-c2ccccc2)nc2ccccc12 | 16 µM (active) |

# return Potency of Cc1ccc(S(=O)(=O)N2CCN(c3nc(-c4cccs4)nc4ccccc34)CC2)c(C)c1 (system: Lysosomal acid glucosylceramidase (Homo sapiens) (UniProt P04062))
0.291 µM (active)

# return Potency of O=S(=O)(c1ccsc1)N1CCN(c2nc(-c3cccs3)nc3ccccc23)CC1 (system: Lysosomal acid glucosylceramidase (Homo sapiens) (UniProt P04062))
1.03 µM (active)

# return Potency of Cc1cc(C)cc(N(CC(=O)Nc2ccc(Br)cc2)S(=O)(=O)c2c(C)[nH]c(=O)[nH]c2=O)c1 (system: Lysosomal acid glucosylceramidase (Homo sapiens) (UniProt P04062))
2.06 µM (active)

# return Potency of COc1cccc(NC(=O)CSc2nc3c(sc4ccccc43)c(=O)n2CCCN2CCCC2)c1 (system: Lysosomal acid glucosylceramidase (Homo sapiens) (UniProt P04062))
inactive

# return Potency of O=[N+]([O-])c1ccc(S(=O)(=O)N2CCN(c3nc(-c4cccs4)nc4ccccc34)CC2)cc1 (system: Lysosomal acid glucosylceramidase (Homo sapiens) (UniProt P04062))
3.2 µM (active)

# return Potency of S=C(NCCCc1cnc[nH]1)NCCN(Cc1ccc(Cl)c(Cl)c1)c1ccc(Br)cn1 (system: Lysosomal acid glucosylceramidase (Homo sapiens) (UniProt P04062))
2.06 µM (active)

# return Potency of O=S(=O)(c1ccc(OC(F)(F)F)cc1)N1CCN(c2nc(-c3cccs3)nc3ccccc23)CC1 (system: Lysosomal acid glucosylceramidase (Homo sapiens) (UniProt P04062))
2.91 µM (active)
